- measurement.target: recombinant F-protein (respiratory syncytial virus (RSV)) (UniProt P03420)
- Sequence (P03420 whole entry): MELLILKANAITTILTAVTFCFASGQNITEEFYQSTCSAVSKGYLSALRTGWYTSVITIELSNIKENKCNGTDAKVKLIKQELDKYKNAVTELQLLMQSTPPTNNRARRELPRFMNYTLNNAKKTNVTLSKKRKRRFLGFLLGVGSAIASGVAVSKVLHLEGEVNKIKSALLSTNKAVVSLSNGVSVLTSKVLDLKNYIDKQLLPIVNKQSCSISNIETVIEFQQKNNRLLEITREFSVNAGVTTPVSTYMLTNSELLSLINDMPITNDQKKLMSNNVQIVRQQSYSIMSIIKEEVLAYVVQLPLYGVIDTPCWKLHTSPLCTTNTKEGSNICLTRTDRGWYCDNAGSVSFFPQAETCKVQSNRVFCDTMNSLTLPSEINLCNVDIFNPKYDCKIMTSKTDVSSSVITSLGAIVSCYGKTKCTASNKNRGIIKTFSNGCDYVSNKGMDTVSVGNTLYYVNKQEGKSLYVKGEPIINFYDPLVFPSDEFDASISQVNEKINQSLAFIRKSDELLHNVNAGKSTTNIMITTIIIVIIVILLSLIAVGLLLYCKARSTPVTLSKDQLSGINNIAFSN
- assay.notes: SPR Biacore T-200, antibody captured on protein A chip, F-protein as analyte
Let's look at some binders and their measured kon.
The response must be a number in M⁻¹ s⁻¹ with no trailing unit.

2H1 (antibody, V domains shown) VH: QVTLKESGGGVVQSGRSLRLSCAASGFTFSSYTMHWVRQAPGKGLEWVSSITGGSSYVDYSASVKGRFTISRDNAQSSLYLQMNSLRAEDTAVYYCARDDYGSGSYSNWFDPWGQGTLVTVSS VL: QSVLTQPPSVSGAPGQRVTISCTGSSSNIGAGYDVHWYQQLPGRAPKLLIYANTNRPSGVADRFSGSKSGASASLAITGLQADDEADYYCQSYDRSLSHVFGTGTKVTVLG; 1.5e+07

Now for another entry.
Challenge: Endpoint output: kon of 4G1 (antibody, V domains shown) VH: QVTLKESGGGLVKPGGSLRLSCAASGFRLSSYGMNWVRQAPGKGLEWVSSISASSSFINYADSVRDRFTISRDNAKNSLYLQMNSLRAEDTAVYYCARDDYGSGSYSNWFDPWGQGTLVTVSS VL: QSVLTQPPSVSGAPGQRVTISCTGNSSNLGAGYDVHWYQQLPGRAPKLLIFANTNRPSGVPDRFSGSKSGASASLAITSLQADDEADYYCQSYDRSLSHVFGTGTKVTVLG . Value?
Response given: 1.77e+06
